- Protocol Text: Cmax in rat at 1 mg/kg, po
- Format: ADME, organism-based
- Set-up: dose 1 mg/kg, route oral
- Condition Label: in vivo
Measured Endpoint: Cmax (nM)
Write the value in nM as a bare number.

Memo: Cc1cc(NC(=O)Nc2cccc(-c3ncn(C)c3-c3cc4c(N)ncnc4s3)c2)on1 , reported Cmax: 9

Every entry's value here was drawn from ChEMBL document CHEMBL1154391.
